Test: Effect of pH value on the stability of the solution (purity)
Type: physicochemical
Details: day 28, pH 3.0, 7% in 25% ethanol, 25° C.
Give measured Purity(%) from day 0-28 for each item. Keep answers brief.
Reply numerically in %, unit not repeated.

Given item CC(C)Cc1ccc([C@@H](C)C(=O)OC[C@@H]2CCCN2)cc1.Cl , the value recorded as its Purity(%) from day 0-28 is 86.0

Given item CC(C)Cc1ccc(C(C)C(=O)OCCN2CCCCC2)cc1.Cl (racemic) , the value recorded as its Purity(%) from day 0-28 is 87.0

Given item CC(C)Cc1ccc([C@@H](C)C(=O)OCCN2CCCC2)cc1.Cl (racemic) , the value recorded as its Purity(%) from day 0-28 is 87.7

Given item CC(C)Cc1ccc([C@@H](C)C(=O)OCCC2CCNCC2)cc1.Cl (racemic) , the value recorded as its Purity(%) from day 0-28 is 87.3

Given item CCN(CC)CCOC(=O)C(C)c1ccc(CC(C)C)cc1.Cl (racemic) , the value recorded as its Purity(%) from day 0-28 is 92.5

Given item CCCCN(CCCC)CCOC(=O)C(C)c1ccc(CC(C)C)cc1.Cl (racemic) , the value recorded as its Purity(%) from day 0-28 is 91.2

Given item CC(C)Cc1ccc([C@@H](C)C(=O)OCCN(C)C)cc1.Cl (racemic) , the value recorded as its Purity(%) from day 0-28 is 88.4

====

Give measured Purity(%) at day 21 (5° C.) for each item. Keep answers brief.
Assay: Effect of temperature (and pH) on the stability of the solution (purity)
Assay type: physicochemical
Details: 7% solution in water, pH 7.0, day 21, 5° C.
Reply numerically in %, unit not repeated.

Given item CCN(CC)CCOC(=O)CC1=C(C)C(=Cc2ccc([S+](C)[O-])cc2)c2ccc(F)cc21.Cl (stereo not shown) , the value recorded as its Purity(%) at day 21 (5° C.) is 89.0

Given item CCN(CC)CCOC(=O)C(C)c1ccc(-c2ccccc2)c(F)c1.Cl (racemic) , the value recorded as its Purity(%) at day 21 (5° C.) is 89.7

Given item CCN(CC)CCOC(=O)C(C)c1ccc2oc(-c3ccc(Cl)cc3)nc2c1.Cl (stereo not shown) , the value recorded as its Purity(%) at day 21 (5° C.) is 89.1

Given item CCN(CC)CCOC(=O)COC(=O)Cc1c(C)n(C(=O)c2ccc(Cl)cc2)c2ccc(OC)cc12.Cl , the value recorded as its Purity(%) at day 21 (5° C.) is 90.2

====

Assay: Effect of concentration on the stability of the solution (purity over time)
Conditions: 3 wt % in 50% ethanol, 25° C.
Give measured Purity (%) at hr 0 for each item. Keep answers brief.
Reply numerically in %, unit not repeated.

Given item CC(C)OC(=O)C(N)Cc1ccccc1 (centres unmarked) [Isopropyl 2-amino-3-phenylpropanoate, reference compound] , the value recorded as its Purity (%) at hr 0 is 98.7

Given item CC(C)OC(=O)c1ccccc1 [Isopropyl benzoate, reference compound] , the value recorded as its Purity (%) at hr 0 is 98.4

Given item CCOC(=O)c1ccccc1 [Ethyl benzoate, reference compound] , the value recorded as its Purity (%) at hr 0 is 97.9

Given item CC(C)(C)OC(=O)c1ccccc1 [t-Butyl benzoate, reference compound] , the value recorded as its Purity (%) at hr 0 is 97.4

Given item CC(C)(C)OC(=O)C(N)Cc1ccccc1 (centres unmarked) [t-Butyl 2-amino-3-phenylpropanoate, reference compound] , the value recorded as its Purity (%) at hr 0 is 98.2

====

Give measured Purity at Day 28 for each item. Keep answers brief.
Experiment: Effect of concentration on the stability of the solution (purity over time)
Conditions: 50 wt %; in water at 25° C.
Reply numerically in %, unit not repeated.

Given item CCN(CC)CCOC(=O)Cc1c(C)n(C(=O)c2ccc(Cl)cc2)c2ccc(OC)cc12.Cl , the value recorded as its Purity at Day 28 is 97.6

Given item CCN(CC)CCOC(=O)C(C)c1ccc2oc(-c3ccc(Cl)cc3)nc2c1.Cl (stereo not shown) , the value recorded as its Purity at Day 28 is 97.5

Given item CCN(CC)CCOC(=O)CC1=C(C)C(=Cc2ccc([S+](C)[O-])cc2)c2ccc(F)cc21.Cl (stereo not shown) , the value recorded as its Purity at Day 28 is 96.8

Given item CCN(CC)CCOC(=O)Cc1sc(-c2ccccc2)nc1-c1ccc(Cl)cc1.Cl , the value recorded as its Purity at Day 28 is 97.8

Given item CCN(CC)CCOC(=O)CCc1nc(-c2ccccc2)c(-c2ccccc2)o1.Cl , the value recorded as its Purity at Day 28 is 97.5

Given item CCN(CC)CCOC(=O)CCc1ccc2cc(OC)ccc2c1.Cl , the value recorded as its Purity at Day 28 is 97.6

Given item CCN(CC)CCOC(=O)Cc1ccc(C(=O)c2ccc(C)cc2)n1C.Cl , the value recorded as its Purity at Day 28 is 96.8

====

Give measured Purity at Day 28 for each item. Keep answers brief.
Assay: Effect of concentration on the stability of the solution (purity over time)
Settings: 0.1 wt %; in water at 25° C.

Given item CCN(CC)CCOC(=O)Cc1sc(-c2ccccc2)nc1-c1ccc(Cl)cc1.Cl , the value recorded as its Purity at Day 28 is 80.5%

Given item CCN(CC)CCOC(=O)Cc1c(C)n(C(=O)c2ccc(Cl)cc2)c2ccc(OC)cc12.Cl , the value recorded as its Purity at Day 28 is 78.7%

Given item CCN(CC)CCOC(=O)CCc1ccc2cc(OC)ccc2c1.Cl , the value recorded as its Purity at Day 28 is 83.8%

====

Test: Effect of temperature (and pH) on the stability of the solution (purity)
Assay type: physicochemical
Settings: 7% solution in water, pH 3.0, day 21, 25° C.
Give measured Purity(%) at day 21 (25° C.) for each item. Keep answers brief.
Reply numerically in %, unit not repeated.

Given item CCN(CC)CCOC(=O)C(C)c1ccc(-c2ccccc2)c(F)c1.Cl (racemic) , the value recorded as its Purity(%) at day 21 (25° C.) is 96.0

Given item CCN(CC)CCOC(=O)CCc1ccc2cc(OC)ccc2c1.Cl , the value recorded as its Purity(%) at day 21 (25° C.) is 94.6

Given item CCN(CC)CCOC(=O)Cc1ccc(C(=O)c2ccc(C)cc2)n1C.Cl , the value recorded as its Purity(%) at day 21 (25° C.) is 91.2

Given item CCN(CC)CCOC(=O)CC1=C(C)C(=Cc2ccc([S+](C)[O-])cc2)c2ccc(F)cc21.Cl (stereo not drawn) , the value recorded as its Purity(%) at day 21 (25° C.) is 92.2

Given item CCN(CC)CCOC(=O)COC(=O)Cc1c(C)n(C(=O)c2ccc(Cl)cc2)c2ccc(OC)cc12.Cl , the value recorded as its Purity(%) at day 21 (25° C.) is 93.0

Given item CCN(CC)CCOC(=O)C(C)c1ccc2oc(-c3ccc(Cl)cc3)nc2c1.Cl (stereo not drawn) , the value recorded as its Purity(%) at day 21 (25° C.) is 94.0

Given item CCN(CC)CCOC(=O)COc1nn(Cc2ccccc2)c2ccccc12.Cl , the value recorded as its Purity(%) at day 21 (25° C.) is 91.3

Given item CCN(CC)CCOC(=O)CCc1nc(-c2ccccc2)c(-c2ccccc2)o1.Cl , the value recorded as its Purity(%) at day 21 (25° C.) is 88.9

Given item CCN(CC)CCOC(=O)Cc1c(C)n(C(=O)c2ccc(Cl)cc2)c2ccc(OC)cc12.Cl , the value recorded as its Purity(%) at day 21 (25° C.) is 94.5

====

Assay: Effect of temperature (and pH) on the stability of the solution (purity)
Assay type: physicochemical
Conditions: 7% solution in water, pH 4.0, day 0
quantityName: Purity(%) at day 0
Reply numerically in %, unit not repeated.

Given item CCN(CC)CCOC(=O)CCc1ccc2cc(OC)ccc2c1.Cl , the value recorded as its Purity(%) at day 0 is 98.5

Given item CCN(CC)CCOC(=O)Cc1ccc(C(=O)c2ccc(C)cc2)n1C.Cl , the value recorded as its Purity(%) at day 0 is 98.1

Given item CCN(CC)CCOC(=O)Cc1c(C)n(C(=O)c2ccc(Cl)cc2)c2ccc(OC)cc12.Cl , the value recorded as its Purity(%) at day 0 is 98.7

Given item CCN(CC)CCOC(=O)COC(=O)Cc1c(C)n(C(=O)c2ccc(Cl)cc2)c2ccc(OC)cc12.Cl , the value recorded as its Purity(%) at day 0 is 98.7

Given item CCN(CC)CCOC(=O)COc1nn(Cc2ccccc2)c2ccccc12.Cl , the value recorded as its Purity(%) at day 0 is 98.1

Given item CCN(CC)CCOC(=O)c1cc(-c2ccc(F)cc2F)ccc1OC(C)=O.Cl , the value recorded as its Purity(%) at day 0 is 99.1

Given item CCN(CC)CCOC(=O)C(C)c1ccc2oc(-c3ccc(Cl)cc3)nc2c1.Cl (stereo not drawn) , the value recorded as its Purity(%) at day 0 is 98.6

Given item CCN(CC)CCOC(=O)CCc1nc(-c2ccccc2)c(-c2ccccc2)o1.Cl , the value recorded as its Purity(%) at day 0 is 98.8

Given item CCN(CC)CCOC(=O)CC1=C(C)C(=Cc2ccc([S+](C)[O-])cc2)c2ccc(F)cc21.Cl (stereo not drawn) , the value recorded as its Purity(%) at day 0 is 97.9
